// reported Kd per item
test.target: GDP-bound KRAS wild-type protein (Homo sapiens, UniProt P01116)
assay: Binding to KRAS by surface plasmon resonance (SPR), Single Cycle Kinetics
condition.notes: SPR, Single Cycle Kinetics; GDP-bound KRAS wild-type protein

[
  {
    "compound": "CCO[C@@H]1C[C@H]2C(=O)NC3(CCC3)C(=O)N(C)[C@@H](C3CCCC3)C(=O)N(C)[C@H](C(=O)N(C)C)CC(=O)N(C)[C@@H](CC(C)C)C(=O)N[C@@H]([C@@H](C)CC)C(=O)N(C)CC(=O)N(C)[C@H]3C/C=C\\CCN(C3=O)[C@@H](Cc3ccc(C(F)(F)F)cc3)C(=O)N(C)CC(=O)N[C@@H](CCc3ccc(C(F)(F)F)c(OC)c3)C(=O)N2C1 [PP1245]",
    "Kd": "0.06 nM"
  },
  {
    "compound": "CCO[C@@H]1C[C@H]2C(=O)NC3(CCC3)C(=O)N(C)[C@@H](C3CCCC3)C(=O)N(C)[C@H](C(=O)N3CCCC3)CC(=O)N(C)[C@@H](CC3CC3)C(=O)N[C@@H]([C@@H](C)CC)C(=O)N(C)CC(=O)N(C)[C@H]3C/C=C\\CCN(C3=O)[C@@H](Cc3ccc(C(F)(F)F)cc3)C(=O)N(C)CC(=O)N[C@@H](CCc3cc(F)c(C(F)(F)F)c(F)c3)C(=O)N2C1 [PP1296]",
    "Kd": "0.12 nM"
  },
  {
    "compound": "CCC[C@H]1C(=O)N[C@@H]([C@@H](C)CC)C(=O)N(C)CC(=O)N(C)[C@H]2C/C=C\\CCN(C2=O)[C@@H](CC2CCC(F)(F)CC2)C(=O)N(C)CC(=O)N[C@@H](CCc2cc(F)c(C(F)(F)F)c(F)c2)C(=O)N2C[C@H](OCC)C[C@H]2C(=O)NC2(CCC2)C(=O)N(C)[C@@H](C2CCCC2)C(=O)N(C)[C@H](C(=O)N(C)C)CC(=O)N1C [PP1450]",
    "Kd": "0.14 nM"
  }
]

====

// reported Kd per item
test.target: GDP-bound KRAS wild-type protein (Homo sapiens)
assay: Binding to KRAS by surface plasmon resonance (SPR), Single Cycle Kinetics
condition.notes: SPR Single Cycle Kinetics, GDP-bound KRAS wild-type protein, 1:1 binding model
*1 amine or outer side, *2 acyl side, *3 side chain or, on linkers, in order; H or OH if unused. Where a SMILES comes first, the peptide text is derived from it. Bridges are numbered along the chain shown (N, C = ends). [ ]: non-standard residue; d: D form. hPhe(3-Cl-4-CF3) = N[C@@H](CCc1ccc(C(F)(F)F)c(Cl)c1)C(=O)O; X4 = CCCN([C@@H](COCCC(C)C)C(=O)[*:2])[*:1]; NMeGly(cPent) = CN[C@H](C(=O)O)C1CCCC1; NMeD = CN[C@@H](CC(=O)O)C(=O)O; NMeL = CN[C@@H](CC(C)C)C(=O)O; NMeA = CN[C@@H](C)C(=O)O; Aze = O=C(O)[C@@H]1CCN1; Ac4c = NC1(C(=O)O)CCC1; Sar = CNCC(=O)O

[
  {
    "compound": "CC[C@H](C)[C@@H]1NC(=O)[C@H](CC(C)C)N(C)C(=O)CSC[C@@H](C(=O)N(C)C)N(C)C(=O)[C@H](C2CCCC2)N(C)C(=O)C2(CCCC2)NC(=O)[C@@H]2CCCN2C(=O)[C@H](CCc2cc(F)c(C(F)(F)F)c(F)c2)NC(=O)CN(C)C(=O)[C@H](Cc2ccc(C(F)(F)F)cc2)N2CC/C=C\\C[C@@H](C2=O)N(C)C(=O)CN(C)C1=O (stereo in doubt)",
    "Kd, nM": 3000
  },
  {
    "compound": "CCCN1C(=O)[C@@H]2CCN2C(=O)[C@H](C)N(C)C(=O)[C@H]([C@@H](C)CC)NC(=O)[C@H](CC(C)C)N(C)C(=O)C[C@@H](C(=O)N(C)C)N(C)C(=O)[C@H](C2CCCC2)N(C)C(=O)C2(CCC2)NC(=O)[C@@H]2CCCN2C(=O)[C@H](CCc2ccc(C(F)(F)F)c(Cl)c2)NC(=O)CN(C)C(=O)[C@@H]1COCCC(C)C [PP1820] ([NMeL]I[NMeA][Aze][X4][Sar][hPhe(3-Cl-4-CF3)]P[Ac4c][NMeGly(cPent)][NMeD]-NMe2; lactam N-11)",
    "Kd, nM": 0.6
  },
  {
    "compound": "CCC[C@H]1C(=O)N[C@@H]([C@@H](C)CC)C(=O)N(C2CC2)CC(=O)N(C)[C@H]2C/C=C\\CCN(C2=O)[C@@H](Cc2ccc(C)cc2)C(=O)N(C)CC(=O)N[C@@H](CCc2cc(F)c(C(F)(F)F)c(F)c2)C(=O)N2C[C@H](OCC)C[C@H]2C(=O)N(C)C2(CCC2)C(=O)N(C)[C@@H](C2CCCC2)C(=O)N(C)[C@H](C(=O)N2CCCCC2)CC(=O)N1C",
    "Kd, nM": 4.8
  }
]
